Biological target: biotin-labeled active hMMP-9(cat)_FLAG_Avi (UniProt P14780 107-449, biotin on the Avi tag (biotin ligase BirA))
Sequence (P14780 other isoform, or with tags, fused parts or gaps): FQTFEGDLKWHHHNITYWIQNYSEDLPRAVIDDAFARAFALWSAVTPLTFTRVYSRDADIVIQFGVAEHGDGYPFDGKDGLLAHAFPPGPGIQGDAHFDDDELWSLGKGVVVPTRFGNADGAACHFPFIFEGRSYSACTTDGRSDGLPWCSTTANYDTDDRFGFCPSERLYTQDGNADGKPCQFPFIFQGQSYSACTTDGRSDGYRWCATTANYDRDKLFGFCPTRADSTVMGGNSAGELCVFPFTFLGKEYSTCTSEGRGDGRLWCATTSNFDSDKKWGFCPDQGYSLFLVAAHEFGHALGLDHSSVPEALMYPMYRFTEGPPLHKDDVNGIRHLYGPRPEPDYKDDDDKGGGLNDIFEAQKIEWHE
Experiment: ELISA
pEC50: −log10 of the molar value.
Entries and their pEC50
experimental.readout: pEC50

# binder, recorded.measurement
records = [
    ("active MMP-9-binding peptide M91001 (designed binder) GSGMKETAAAKFERQHMDSPDLGTDDDDKAMADIGSANSDPQFGLFSKYRTPNCQRGIGPSCQMSYKPVCGSDMSTYANECTLCMKIREGGHNIKIIRNGPCGASAAA", 7.66),
    ("active MMP-9-binding peptide M91004 (designed binder) GSGMKETAAAKFERQHMDSPDLGTDDDDKAMADIGSANSDPQFGLFSKYRTPNCRQRKGPSCQMAFQPVCGSDMSTYANECTLCMKIREGGHNIKIIRNGPCGASAAA", 7.38),
    ("active MMP-9-binding peptide M91002 (designed binder) GSGMKETAAAKFERQHMDSPDLGTDDDDKAMADIGSANSDPQFGLFSKYRTPNCRTGRGPACQMGFQPVCGSDMSTYANECTLCMKIREGGHNIKIIRNGPCGASAAA", 7.33),
    ("active MMP-9-binding peptide M91011 (designed binder) GSGMKETAAAKFERQHMDSPDLGTDDDDKAMADIGSANSDPQFGLFSKYRTPNCMMYKYAQCSHKSQPVCGSDMSTYANECTLCMKIREGGHNIKIIRNGPCGASAAA", 7.80),
]
